The reported numbers originate from patent US20250092065A1.

Test system: MYB
assay: HiBiT protein abundance assay, MYB (K562 HiBiT knock-in)
Assay type: cell-based, human
assay.context: HiBiT knock-in K562 cells, 24 hours, top dose 10 μM
parameter: IC50

// known answers, use as guide
>>> result("Cn1cc2cc(-c3ccc4nc(N5CC[C@H](NC(C)(C)C)C5)ccc4n3)c(O)c(F)c2n1 (single isomer, unassigned)")
"< 100 nM"
>>> result("CCNC(=O)c1nc(-c2cc3cn(C)nc3c(C)c2O)nc2ccc(N3CCNCC3)cc12")
"< 100 nM"
>>> result("c1c[nH]c(-c2ccc3nc(C4CCNCC4)ccc3n2)n1")
"> 10000 nM"
>>> result("C[C@@H]1CN(c2ccc3nc(-c4cc5cn(C)nc5c(F)c4O)nc(C(N)=O)c3c2)C[C@H](C)N1")
"< 100 nM"
>>> result("Cc1cn2cc(-c3ncc4cc(N5C[C@@H](C)N[C@@H](C)C5)ccc4n3)cc(F)c2n1")
"< 100 nM"

Query: Tell us which IC50 value is on record for COc1c(-c2ccc3nc(N4CCC(NC(C)(C)C)C4)ccc3n2)cc2c[nH]nc2c1C (stereo not drawn)
Response: > 10000 nM

Query: Tell us which IC50 value is on record for "CNC(=O)c1nc(-c2cc3cn(C)nc3c(F)c2O)nc2ccc(N3CC[C@@H](NC)C3)cc12"
Response: < 100 nM

Query: Tell us which IC50 value is on record for Cc1c(O)c(-c2ccc3nc(N4CCC(NC(C)C)C4)ccc3n2)cc2cn(C)nc12 (stereo not drawn)
Response: < 100 nM

Query: Tell us which IC50 value is on record for Cn1cc2cc(-c3ccc4cc(N5CCC(NC(C)(C)C)C5)ncc4n3)c(O)cc2n1 (stereo not drawn)
Response: 100 to 1000 nM

Query: Tell us which IC50 value is on record for "Cc1nc2c(F)c(O)c(-c3ccc4nc(N5CC[C@H](NC(C)(C)C)C5)ccc4n3)cc2o1"
Response: < 100 nM

Query: Tell us which IC50 value is on record for Cc1c(O)c(-c2ccc3nc(N4CC[C@H](NC5CCC5)C4)ccc3n2)cc2cn(C)nc12 (single isomer, unassigned)
Response: < 100 nM

Query: Tell us which IC50 value is on record for Cc1c(O)c(-c2ccc3nc(N4CCC(NCC5CC5)C4)ccc3n2)cc2cn(C)nc12 (stereo not drawn)
Response: < 100 nM

Query: Tell us which IC50 value is on record for "CNC(=O)c1nc(-c2cc3cn(C)nc3cc2O)nc2ccc(N3C[C@@H](C)N[C@@H](C)C3)cc12"
Response: < 100 nM

Query: Tell us which IC50 value is on record for Cc1cc(-c2ccc3nc(N4CCC(NC(C)(C)C)C4)ccc3n2)nc2cn(C)nc12 (stereo not drawn)
Response: 1000 to 10000 nM

Query: Tell us which IC50 value is on record for "Cc1c(O)c(-c2nc(-c3cncs3)c3cc(N4CCNCC4)ccc3n2)cc2cn(C)nc12"
Response: 100 to 1000 nM
